- Target Desc: T1, CCR5 Thr^2.56(82)Lys/Arg^6.32(225)Gln double-mutant receptor (human, UniProt P51681 1-352, Thr^2.56(82)Lys | Arg^6.32(225)Gln)
- T1 construct: also called T^2.56(82)K/R^6.32(225)Q; T^2.69(82)K/R^6.32(225)Q; source: HOS-CD4-Luc, transiently transfected, on cells (fusion)
- T1 sequence: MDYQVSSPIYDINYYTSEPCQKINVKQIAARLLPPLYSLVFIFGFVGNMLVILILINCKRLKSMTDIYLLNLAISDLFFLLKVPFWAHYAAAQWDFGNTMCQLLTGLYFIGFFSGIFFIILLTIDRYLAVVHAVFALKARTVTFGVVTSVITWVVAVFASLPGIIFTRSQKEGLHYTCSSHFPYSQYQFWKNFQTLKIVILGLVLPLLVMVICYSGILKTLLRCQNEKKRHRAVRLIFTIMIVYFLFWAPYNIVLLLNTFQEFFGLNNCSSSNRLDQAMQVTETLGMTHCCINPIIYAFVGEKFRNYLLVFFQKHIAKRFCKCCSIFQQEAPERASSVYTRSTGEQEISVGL
- Run Description: radioligand binding
- Experimental Parameters: one partner purified
Assay Readout: IC50

Data point: macrophage inflammatory protein 1β (MIP-1β, CCL4), recombinant human, unlabelled (ligand, also called unlabelled MIP-1β; source: bought: Peprotec (Rocky Hill, NJ)) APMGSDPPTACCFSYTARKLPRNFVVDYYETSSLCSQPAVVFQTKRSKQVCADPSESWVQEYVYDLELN ; IC50 = 20.7 nM

Cited source for all entries: paper PMC3552960
